Test system: bovine brain tubulin
Assay: Tubulin polymerization assay
Assay type: biochemical
Details: read-out: Tubulin polymerization inhibition IC50; 2 mg/mL tubulin, 37 °C
For each of the compounds below, state its IC50.
Your answer should be a plain number; it is taken to be in nM.

// fetch IC50 given entry COc1cc([C@@H]2c3cc4c(cc3[C@@H](OCc3cc(-c5cc(Cl)cc(Cl)c5)no3)[C@H]3COC(=O)C23)OCO4)cc(OC)c1OC (stereo partly drawn) [Compound 6m]
3790

// fetch IC50 given entry COc1cc([C@@H]2c3cc4c(cc3[C@H](O)[C@H]3COC(=O)[C@H]23)OCO4)cc(OC)c1OC [Podophyllotoxin, podophyllotoxin, reference compound]
840

// fetch IC50 given entry COc1cc([C@@H]2c3cc4c(cc3[C@@H](OCc3cc(-c5ccc([N+](=O)[O-])cc5)no3)[C@H]3COC(=O)C23)OCO4)cc(OC)c1OC (stereo partly drawn) [Compound 6j]
1320

----------
For each of the compounds below, state its GI50.
Your answer should be a plain number; it is taken to be in µM.

# return GI50 of COc1cc([C@@H]2c3cc4c(cc3[C@@H](OCc3cc(-c5cc(Cl)cc(Cl)c5)no3)[C@H]3COC(=O)C23)OCO4)cc(OC)c1OC (stereo partly drawn) (system: MIAPACA)
2.33

# return GI50 of COc1cc([C@@H]2c3cc4c(cc3[C@@H](OCc3cc(-c5ccc([N+](=O)[O-])cc5)no3)[C@H]3COC(=O)C23)OCO4)cc(OC)c1OC (stereo partly drawn) (system: MIAPACA)
1.54

# return GI50 of COc1cc([C@@H]2c3cc4c(cc3[C@@H](OCc3cc(-c5ccc(Cl)cc5)no3)[C@H]3COC(=O)C23)OCO4)cc(OC)c1OC (stereo partly drawn) (system: MIAPACA)
3.14

# return GI50 of COc1cc([C@@H]2c3cc4c(cc3[C@@H](OCc3cc(-c5cc(C)cc(C)c5)no3)[C@H]3COC(=O)C23)OCO4)cc(OC)c1OC (stereo partly drawn) (system: MIAPACA)
2.28

# return GI50 of COc1cc([C@@H]2c3cc4c(cc3[C@@H](OCc3cc(-c5cccc(C)c5)no3)[C@H]3COC(=O)C23)OCO4)cc(OC)c1OC (stereo partly drawn) (system: MIAPACA)
4.67

# return GI50 of COc1cc([C@@H]2c3cc4c(cc3[C@@H](OCc3cc(-c5ccc(F)cc5)no3)[C@H]3COC(=O)C23)OCO4)cc(OC)c1OC (stereo partly drawn) (system: MIAPACA)
13.1

# return GI50 of COc1cc([C@@H]2c3cc4c(cc3[C@@H](OCc3cc(-c5cccc(Cl)c5)no3)[C@H]3COC(=O)C23)OCO4)cc(OC)c1OC (stereo partly drawn) (system: MIAPACA)
18.3

# return GI50 of COc1cc([C@@H]2c3cc4c(cc3[C@@H](OCc3cc(-c5ccc(Br)cc5)no3)[C@H]3COC(=O)C23)OCO4)cc(OC)c1OC (stereo partly drawn) (system: MIAPACA)
6.84

# return GI50 of COc1cc([C@@H]2c3cc4c(cc3[C@H](O)[C@H]3COC(=O)[C@H]23)OCO4)cc(OC)c1OC [Podophyllotoxin, podophyllotoxin, reference compound] (system: MIAPACA)
0.51

Where do the numbers come from? From paper PMC11276401.
